IC50 values for the molecules below.
molecular target: UniProtKB P35968
Sequence (P35968 20-1356): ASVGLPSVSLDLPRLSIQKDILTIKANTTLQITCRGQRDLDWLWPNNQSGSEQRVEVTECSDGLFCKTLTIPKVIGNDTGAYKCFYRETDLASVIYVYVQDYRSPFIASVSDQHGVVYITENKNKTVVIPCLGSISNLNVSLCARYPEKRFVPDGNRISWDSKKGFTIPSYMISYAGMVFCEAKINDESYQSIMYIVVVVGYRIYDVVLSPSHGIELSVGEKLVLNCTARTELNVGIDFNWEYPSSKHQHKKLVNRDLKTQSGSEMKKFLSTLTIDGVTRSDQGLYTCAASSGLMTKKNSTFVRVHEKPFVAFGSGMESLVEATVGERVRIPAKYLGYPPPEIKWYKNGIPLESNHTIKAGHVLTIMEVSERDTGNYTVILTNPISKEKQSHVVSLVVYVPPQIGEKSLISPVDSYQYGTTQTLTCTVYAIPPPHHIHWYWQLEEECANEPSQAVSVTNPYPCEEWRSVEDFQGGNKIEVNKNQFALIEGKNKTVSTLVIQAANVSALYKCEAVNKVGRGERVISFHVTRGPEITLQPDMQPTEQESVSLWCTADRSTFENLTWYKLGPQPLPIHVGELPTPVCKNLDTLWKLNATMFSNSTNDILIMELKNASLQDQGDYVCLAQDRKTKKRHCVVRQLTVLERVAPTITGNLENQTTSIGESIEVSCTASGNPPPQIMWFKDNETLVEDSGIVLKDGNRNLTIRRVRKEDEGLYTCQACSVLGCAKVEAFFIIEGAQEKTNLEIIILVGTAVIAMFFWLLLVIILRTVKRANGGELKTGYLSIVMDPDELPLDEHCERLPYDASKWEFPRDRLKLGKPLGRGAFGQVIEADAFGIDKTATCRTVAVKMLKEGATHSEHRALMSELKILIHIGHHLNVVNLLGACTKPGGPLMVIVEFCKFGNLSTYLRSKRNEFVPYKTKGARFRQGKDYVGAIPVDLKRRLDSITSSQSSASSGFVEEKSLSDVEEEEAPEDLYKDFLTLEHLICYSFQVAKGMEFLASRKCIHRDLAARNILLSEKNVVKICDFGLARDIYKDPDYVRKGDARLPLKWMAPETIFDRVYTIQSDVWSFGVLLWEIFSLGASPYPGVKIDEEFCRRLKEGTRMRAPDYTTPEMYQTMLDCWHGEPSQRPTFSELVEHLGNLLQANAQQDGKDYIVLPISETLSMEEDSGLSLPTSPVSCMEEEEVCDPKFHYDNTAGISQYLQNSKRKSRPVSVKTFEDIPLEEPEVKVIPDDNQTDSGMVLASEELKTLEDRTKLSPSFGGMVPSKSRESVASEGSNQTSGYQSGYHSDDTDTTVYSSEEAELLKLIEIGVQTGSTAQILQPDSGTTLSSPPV

CNC(=O)c1ccccc1Sc1ccc2c(cnn2-c2ccc(OCCN3CCCC3)cn2)c1 ... > 100 nM

Qu. // IC50 lookup, key: `CCNC(=O)c1ccccc1Sc1ccc2c(/C=C/c3cnn(CCCN4CCCC4)c3)n[nH]c2c1`
Ans. ≤ 1 nM

Qu. Also check `CCN(CC)CCc1ccc(/C=C/c2n[nH]c3cc(Sc4cc(F)ccc4C(=O)NC4CC4)ccc23)nc1`
Ans. ≤ 1 nM

Qu. Same question for `CCN(CC)Cc1ccc(/C=C/c2n[nH]c3cc(Sc4c(F)cccc4C(=O)NC4CC4)ccc23)nc1` please.
Ans. 1 to 10 nM
